Cited source for all entries: patent US20180036405A1

# Subject Of Test: T1, human monomeric EGFR (EGFR.mmh) (human, UniProt P00533 25-647)
# T1 construct: Soluble monomeric EGFR construct
# Protocol Description: SPR 37C, mAb captured by anti-human Fc, EGFR.mmh analyte
Measured Quantity: Kd (nM)
Value expressed in nM; do not type the unit.

Completed entries (count: 2):
H1H151P (antibody, human IgG1, V domains shown, Human IgG1 Fc (H1H)) VH: QVQLQESGPGLVNPSQTLSLTCTVSGGSINSGDYYWSWVRQHPGKGLEWIGYIYYSGSTYYNPSLKSRVTISVDTSKNQFSLKLSSVTVADTAVYYCARVGYSKGYFDSWGQGTLVTVSS VL: DIQMTQSPSTLSASVGDRVTITCRASESISSWLAWYQQKPGKAPKVLIYDASSLESGVPSRFSGSGSGTEYTLTISSLQPDDFASYYCQQYKSYWTFGQGTKVEIK = 8.4
H1H169P (antibody, human IgG1, V domains shown, Human IgG1 Fc (H1H)) VH: EVQLVESGGGLVQPGGSLRLSCAASRFTFSTYWMSWVRQAPGKGLEWVAKIKQDGSEKYYLDSVKDRFTISRDNAKNSLYLQMNSLRAEDTAVYYCASSITWYDYYYGMDVWGHGTTVTVSS VL: EIVLTQSPDFQSVTPKEKVTITCRASQSIGSNLHWYQQKPDQSPNLLIKFASQSFSGVPSRFSGSGSGTDFTLTINSLEAEDAATYYCHQTNFLPHTFGGGTKVEIK = 1.31

// next item, Kd requested
### Prompt Which measured Kd value corresponds to H1H0085N (antibody, V domains shown, Tested in human IgG1 Fc format (H1H prefix); first obtained as H1M (mouse IgG1 Fc) from a hybridoma; also called H1M085N; H1H085N) VH: EVQLVESGGGLVQPGRSLRLSCAASGFTFDDYAMHWVRQAPGKGLEWVSGINWNSDKIAYADSVKGRFTISRDNAENSLFLQMNSLRPEDTALYYCVKRGDFWTEYYDYWGQGTLVTVSS VL: DIVMTQSPLSLPVTPGEPASISCRSSQSLLHSNGYNYLDWYLQKPGQSPHLLIYLVSTRASGVPDRFSGSGSGTDFTLKISRVEAEDVGVYYCIQALQTPWTFGQGTKVEIK ?
### Response 15.5
